Molecular target: T1, biotinylated full-length HER2 (human, UniProt P04626 23-652, limits assumed, biotinylated (site not stated))
T1 construct: Immobilised on the SPR chip; also called bio-HER2; Human Epidermal Growth Factor Receptor 2
Test: SPR multi-trace, biotinylated HER2 on chip, analyte 0.617-50 nM, global 1:1 Langmuir fit
Listed next: entries and their corresponding kon.
Value expressed in M⁻¹ s⁻¹; do not type the unit.

### Prompt Name the recorded kon of the binder listed here: DARPin15-GSGSC-DTPA (designed binder, maleimide-DTPA coupled to the C-terminal Cys of the GSGSC tag, Charge variant derived from DARPin06; His-TEV tag cleaved off; possible N-terminal GS not included; also called construct 15) DLGTQLLRAAESGQLDEVRELLKAGADVNAQDEYGLTPLYLATAHGHLEIVTVLLEAGADVNAQDAIGFTPLHLAAFIGHLEIATVLLEAGADVNAQDNFGTTPADIAAGAGNEDIAEVLQQAAGSGSC
### Response 336000

### Prompt Name the recorded kon of the binder listed here: DARPin08-GSGSC-DTPA (designed binder, maleimide-DTPA coupled to the C-terminal Cys of the GSGSC tag, Charge variant of DARPin06; His-TEV tag cleaved off; possible N-terminal GS not included; also called construct 8) DLGTQLLRAAESGQLDEVRELLKAGADVNAQDEYGLTPLYLATAHGHLEIVTVLLEAGADVNAQDAIGFTPLHLAAFIGHLEIATVLLEAGADVNAQDKFGKTPADIAAGAGNEDIAEVLQKAAGSGSC
### Response 521000

### Prompt Name the recorded kon of the binder listed here: DARPin06-GSGSC-DTPA (designed binder, maleimide-DTPA coupled to the C-terminal Cys of the GSGSC tag, Parent; also called construct 6; DTPA coupled parental DARPin06) DLGKKLLEAARAGQDDEVRELLKAGADVNAKDEYGLTPLYLATAHGHLEIVEVLLKAGADVNAVDAIGFTPLHLAAFIGHLEIAEVLLKAGADVNAQDKFGKTPADIAAGAGNEDIAEVLQKAAGSGSC
### Response 653000

Further cases:
### Prompt Name the recorded kon of the binder listed here: DARPin13-GSGSC-DTPA (designed binder, maleimide-DTPA coupled to the C-terminal Cys of the GSGSC tag, Charge variant derived from DARPin06; His-TEV tag cleaved off; possible N-terminal GS not included; also called construct 13) DLGTQLLQAAESGQLDEVHDLLQAGADVNAQDEYGLTPLYLATAHGHLEIVTVLLEAGADVNAQDAIGFTPLHLAAFIGHLEIATVLLEAGADVNAQDKFGKTPADIAAGAGNEDIAEVLQKAAGSGSC
### Response 386000

### Prompt Name the recorded kon of the binder listed here: DARPin16-GSGSC-DTPA (designed binder, maleimide-DTPA coupled to the C-terminal Cys of the GSGSC tag, Charge variant derived from DARPin06; His-TEV tag cleaved off; possible N-terminal GS not included; also called construct 16) DLGTQLLEAAESGQLDEVRELLKAGADVNAQDEYGLTPLYLATAHGHLEIVTVLLEAGADVNAQDAIGFTPLHLAAFIGHLEIATVLLEAGADVNAQDKFGTTPADIAAGAGNEDIAEVLQKAAGSGSC
### Response 422000

### Prompt Name the recorded kon of the binder listed here: DARPin14-GSGSC-DTPA (designed binder, maleimide-DTPA coupled to the C-terminal Cys of the GSGSC tag, Charge variant derived from DARPin06; His-TEV tag cleaved off; possible N-terminal GS not included; also called construct 14) DLGTQLLEAAESGQLDEVRELLQAGADVNAQDEYGLTPLYLATAHGHLEIVTVLLEAGADVNAQDAIGFTPLHLAAFIGHLEIATVLLEAGADVNAQDKFGKTPADIAAGAGNEDIAEVLQKAAGSGSC
### Response 524000
